Cited source: PubChem BioAssay (NCI)

Tested on: NCI-H460 lung
protocol-summary: NCI-60 one-dose screen, 48 h
experimental-context: 10 µM unless noted
About 83,000 compounds went through this panel and 20% of them were active in at least one assay; those are over-represented in the sample as a whole. The source made the active and inactive calls. How the source made its calls: active means growth percent below 10; inactive means the rest.
Mark one answer only. Choices: 1 (yes) (active), 0 (no) (inactive)

Worked examples follow.
[
  {
    "compound": "O=S=Nc1ccc([N+](=O)[O-])cc1",
    "label": "0 (no)"
  },
  {
    "compound": "COc1ccc(NC(=O)CSc2nc3ccccc3c(=O)n2-c2ccccc2C(F)(F)F)c(OC)c1OC",
    "label": "0 (no)"
  },
  {
    "compound": "CCCCCCCCCCCCCCCCCCOc1cccc(CCOP(=O)(O)OCC[N+](C)(C)C)c1",
    "label": "0 (no)"
  },
  {
    "compound": "CC(Br)C(Br)c1cc2c(cc1Br)OCO2 (stereo unspecified)",
    "label": "0 (no)"
  },
  {
    "compound": "CCCCCC(=O)OCc1ccccc1",
    "label": "0 (no)"
  },
  {
    "compound": "O=c1[nH]c2ccccc2cc1-c1nnc(Cc2ccccc2)o1",
    "label": "0 (no)"
  },
  {
    "compound": "N#CC1=C(N)n2nc(-c3ccncc3)nc2NC1c1cccc2ccccc12 (stereo unspecified)",
    "label": "0 (no)"
  },
  {
    "compound": "COc1ccc(/C=C/C(=O)c2cc(OC)c(OC)c(OC)c2)cc1OCc1cn(Cc2ccc(F)cc2)nn1",
    "label": "0 (no)"
  }
]

Tell me the assay call for CCn1cc(C(=O)O)c(=O)c2cc(F)c(N3CCN(S(=O)(=O)c4ccc(Cl)cc4Cl)CC3)cc21 please. 0 (no)

Tell me the assay call for CCSc1nnc(Nc2ccc(C(C)C)cc2)s1 please. 0 (no)

Tell me the assay call for COC1=CC(c2ccc[nH]2)=N/C1=C\c1[nH]c(C)c(C(=O)CCC(=O)Oc2ccc3c(c2)CCC2C3CC[C@]3(C)[C@@H](O)CC[C@@H]23)c1C (stereo partly specified) please. 1 (yes)

Tell me the assay call for Cc1nc2scc(-c3ccccc3)n2c(=O)c1CCO please. 0 (no)

---

Test system: HCC-2998 colon
protocol-summary: NCI-60 one-dose screen, 48 h
experimental-context: 10 µM unless noted
The panel holds about 83,000 compounds, 20% with a hit somewhere; the sample as a whole holds those more often. Calls of active or inactive are those of the source. How the source made its calls: active means growth percent below 10; inactive means the rest.
Mark one answer only. Choices: active, inactive

Tell me the assay call for O=c1cc(C2NCCc3c2[nH]c2ccccc32)c2c(ccc3ccccc32)o1 (stereo unspecified) please. inactive

Tell me the assay call for O=C(Nc1ccc(F)cc1)c1cc([N+](=O)[O-])ccc1O please. inactive

Tell me the assay call for COc1ccc(-c2nc3sccn3c2-c2ccnc(NCCCNS(=O)(=O)c3ccc(F)cc3)n2)cc1 please. inactive

Tell me the assay call for O=C(Nc1ccccc1)OCC1OCOC(COC(=O)Nc2ccccc2)C1OC(=O)Nc1ccccc1 (stereo unspecified) please. inactive

Tell me the assay call for CC/C=C\C[C@H]1C/C=C2/C(=O)C(Cl)=C[C@@H]2C/C=C\CCCC(=O)O1 please. active

Tell me the assay call for N=C(N)c1ccc(-c2ccc(-c3ccc(Cl)cc3)o2)nc1 please. active

Tell me the assay call for COc1ccc(/C=C2\CCCC3=C2NC(C)=NC3c2ccc(OC)c(OC)c2)cc1OC (stereo unspecified) please. active

Tell me the assay call for Cc1cc2c(C(C)C)c(O)c(O)c(C=NCCCCC(=O)O)c2c(O)c1-c1c(C)cc2c(C(C)C)c(O)c(O)c(C=NCCCCC(=O)O)c2c1O please. inactive

Tell me the assay call for CC(C)N(Cc1ccc(CN(C(=O)CCl)C(C)C)cc1)C(=O)CCl please. inactive

Tell me the assay call for Cc1nc(Nc2cccnc2)sc1C(=O)/C=C/c1ccc(F)cc1 please. inactive

Tell me the assay call for CC1=CNNc2c3ncnc-3ncn21 please. inactive

Tell me the assay call for CCn1cc(C2NC(=O)c3cc(F)ccc3N2)c2cccc(Cl)c21 (stereo unspecified) please. active

Tell me the assay call for CCN(CC)CCSc1c2ccc(Cl)cc2nc2ccc(OC)cc12 please. inactive

Tell me the assay call for CCCCCCCCCCCCNC(=S)N/N=C/c1ccc(Cl)c(Cl)c1 please. inactive

Tell me the assay call for COc1ccc2c(c1)C(C)Cc1c(N(C)C)ncnc1N2C (stereo unspecified) please. inactive

Tell me the assay call for COc1ccc(/C=C/C(=O)c2cc(OC)c(OC)c(OC)c2)cc1OCc1cn(Cc2ccc(F)cc2)nn1 please. inactive

---

Test system: BT-549 breast
protocol-summary: NCI-60 one-dose screen, 48 h (100 = growth as untreated, 0 = no growth, -100 = all killed)
experimental-context: 10 µM unless noted
Compounds without any hit were thinned out: in the full panel of roughly 83,000, 20% have a hit.
quantity-name: growth (%)
Numbers only, in %.

[
  {
    "compound": "CCOC(=O)[C@H](CSSc1ncnc2cc[nH]c12)NC(=O)[C@@H](C)c1ccc2cc(OC)ccc2c1",
    "target-entity": "BT-549 breast",
    "growth [%]": 46.3
  }
]

Quick request: growth for each listed item, please.
1. O=[N+]([O-])c1ccc(S(=O)(=O)N2CCN(c3ccnc4cc(Cl)ccc34)CC2)c([N+](=O)[O-])c1
2. CN(C)c1ccc(C2CC(c3ccccc3)=NN2/C=C2\SC(=O)NC2=O)cc1 (stereo not drawn)

[97.6, 87]

---

Tested on: NCI-H460 lung
protocol-summary: NCI-60 one-dose screen, 48 h (100 = growth as untreated, 0 = no growth, -100 = all killed)
experimental-context: 10 µM unless noted
About 83,000 compounds went through this panel and 20% of them were active in at least one assay; those are over-represented in the sample as a whole.
Mark yes only for growth values smaller than 90%; exact matches and larger values are no.

Worked examples follow.
[
  {
    "compound": "COc1cccc2cc(-c3cc4ccccc4[nH]3)c(=NC(=O)c3ccc(Cl)cc3)oc12",
    "label": "yes"
  },
  {
    "compound": "COc1cc(C(=O)N2CCN(C(=O)c3ccco3)CC2)c(N)cc1OCc1ccccc1",
    "label": "no"
  },
  {
    "compound": "Cc1ccc(S(=O)(=O)NCCCNc2nccc(-c3c(-c4ccccc4)nc4sccn34)n2)cc1",
    "label": "yes"
  },
  {
    "compound": "CC(=O)Nc1nc(C(=O)N2N=C(C)/C(=C/c3ccc(Cl)cc3)C2=O)cs1",
    "label": "no"
  },
  {
    "compound": "CCC1CCc2nc3sc(C(=O)Nc4ccccc4F)c(N)c3cc2C1 (stereo unspecified)",
    "label": "yes"
  }
]

Field: below-cutoff. Rule: recorded growth strictly less than 90%. Subject: COc1cc(C2CC(c3c(C)[n+]([O-])c4ccccc4[n+]3[O-])=NN2)cc(OC)c1OC (stereo unspecified) no

---

Test system: TK-10 renal
protocol-summary: NCI-60 one-dose screen, 48 h
experimental-context: 10 µM unless noted
This is part of a sample that, as a whole, favours compounds with a hit. Of some 83,000 tested, about 20% had one in any assay. The source made the active and inactive calls. The calls were made as follows: active = growth percent below 10; inactive = the rest.
Mark one answer only. Choices: active, inactive

[
  {
    "molecule": "O=C(/C=C/c1ccccc1)n1c(-c2ccc(Cl)cc2)nc2ccccc21",
    "target-entity": "TK-10 renal",
    "label": "inactive"
  },
  {
    "molecule": "CN(C)c1ccc(-c2ccc(-c3ccc(C(=N)N)cn3)o2)cc1",
    "target-entity": "TK-10 renal",
    "label": "active"
  },
  {
    "molecule": "COc1cc(OC)c(C(=O)/C=C/c2ccc(C(F)(F)F)cc2)c(OC)c1",
    "target-entity": "TK-10 renal",
    "label": "inactive"
  },
  {
    "molecule": "COc1ccc2c(c1)C(C)Cc1c(N(C)C)ncnc1N2C (stereo unspecified)",
    "target-entity": "TK-10 renal",
    "label": "inactive"
  },
  {
    "molecule": "Nc1c(C(=O)Nc2cccc(Cl)c2Cl)sc2nc3c(cc12)C(=O)CCC3",
    "target-entity": "TK-10 renal",
    "label": "inactive"
  }
]

Tell me the assay call for CC(C)C(C(=O)CCN(C)C)c1ccc(Cl)cc1 (stereo unspecified) please. inactive

Tell me the assay call for COc1ccc(NC(=S)/N=c2\oc3c(OC)cccc3cc2-c2cc3ccccc3[nH]2)cc1 please. inactive

Tell me the assay call for Cc1cccc(-n2c(C)nc3ccc(NC(=O)NCCCl)cc3c2=O)c1 please. inactive

Tell me the assay call for COc1ccc(S(=O)(=O)N2CCN(c3cc4c(cc3F)c(=O)c(C(=O)O)cn4C3CC3)CC2)c(OC)c1 please. inactive

Tell me the assay call for Nc1nc(-c2ccccc2)cs1 please. inactive

Tell me the assay call for NC(=O)c1c(NC(=O)c2ccc3c(c2)OCO3)sc2c1CCC(=O)C2 please. active
